Entries and their pEC50 values follow.
- Test system: Rat Peritoneal Mast Cells
- Assay procedure: Histamine release from rat peritoneal mast cells (Rat Mast Cell in vitro test)
- Type: cell-based
- Condition info: average of a number of experiments, read-out: ACTIVITY: average concentration of peptide to give approximately 50% release of available histamine from rat mast cells
Where no end group is shown, it is not given here.
By convention, pEC50 is the negative base-10 log of a molar concentration.

KTKGSGFFVF-OH [Example No. 4, LysThrLysGlySerGlyPhePheValPheOH] | 4.48

As a next step, examine the substance that follows.
Record KTKGSGFF-OH [Example No. 6, LysThrLysGlySerGlyPhePheOH] , field pEC50: 5.00
